# key: entry, value: CAR-J2 EC50 (PGLALA-CAR-J activation, L363 target cells)
Molecular target: human GPRC5D (human, UniProt Q9NZD1 1-345)
Sequence (Q9NZD1 whole entry): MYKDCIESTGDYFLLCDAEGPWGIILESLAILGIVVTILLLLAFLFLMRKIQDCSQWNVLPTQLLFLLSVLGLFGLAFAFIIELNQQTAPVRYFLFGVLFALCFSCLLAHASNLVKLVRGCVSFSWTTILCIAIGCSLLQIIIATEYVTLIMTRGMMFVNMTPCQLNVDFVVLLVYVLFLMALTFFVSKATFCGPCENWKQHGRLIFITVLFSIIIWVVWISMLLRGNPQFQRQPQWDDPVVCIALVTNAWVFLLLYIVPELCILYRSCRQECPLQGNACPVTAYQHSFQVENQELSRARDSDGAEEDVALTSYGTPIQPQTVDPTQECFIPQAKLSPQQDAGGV
Assay: cell-based or functional assay
observed_property: CAR-J2 EC50 (PGLALA-CAR-J activation, L363 target cells) (mg/L)

binder="P1AE5734 (antibody, V domains shown) VH: QVQLVESGGGVVQPGRSLRLSCAASGFSFSNYGMAWVRQAPGKGLEWVASISTGGGNTYYRDSVKGRFTISRDNSKNTLYLQMNSLRAEDTAVYYCTRHDRGGLYWGQGTMVTVSS VL: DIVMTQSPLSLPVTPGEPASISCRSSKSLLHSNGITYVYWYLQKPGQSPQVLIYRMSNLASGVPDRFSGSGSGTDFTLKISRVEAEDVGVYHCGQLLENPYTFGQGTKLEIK" number=0.0415
binder="P1AE5753 (antibody, V domains shown) VH: EVQLVESGGGVVQPGRSLRLSCAASGFSFSNYGMAWVRQAPGKGLEWVASISTGGGNTYYADSVKGRFTISRDNAKNTLYLQMNSLRAEDTAVYYCTRHDRGGLYWGQGTMVTVSS VL: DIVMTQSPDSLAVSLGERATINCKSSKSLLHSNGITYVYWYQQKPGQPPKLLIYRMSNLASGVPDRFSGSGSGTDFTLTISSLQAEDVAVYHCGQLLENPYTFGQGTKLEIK" number=0.03
binder="P1AE5757 (antibody, V domains shown) VH: EVQLVESGGGLVQPGGSLRLSCAASGFSFSNYGMAWVRQAPGKGLEWVASISTGGGNTYYRDSVKGRFTISRDNAKNTLYLQMNSLRAEDTAVYYCTRHDRGGLYWGQGTMVTVSS VL: DIVMTQSPLSLPVTPGEPASISCRSSKSLLHSNGITYVYWYLQKPGQSPQLLIYRMSNRASGVPDRFSGSGSGTDFTLKISRVEAEDVGVYHCGQLLENPYTFGQGTKLEIK" number=0.145

Provenance of the data: patent US20210054094A1
